# measured-target: MAPK14 (human)
# experiment-summary: Inhibition of MAPK14 Kinase Activity by PHAS-I Assay
# run-parameters: concentration not given here
Grouping key: inhibition. Bins: lower range: < 60%; middle range: ≥ 60% and < 80%; upper range: ≥ 80%

Which bin should I file Cc1cccc(C)c1NC(=O)NCCCc1[nH]nc(-c2ccc(F)cc2)c1-c1ccncc1 under?
upper range

Which bin should I file Cc1c(-c2ccncc2)c(-c2ccc(F)cc2)nn1CC(=O)Nc1ccccc1 under?
upper range

Which bin should I file COc1ccc(NC(=O)NCCc2[nH]nc(-c3ccc(F)cc3)c2-c2ccncc2)c(OC)c1 under?
lower range

Which bin should I file Cc1c(-c2ccncc2)c(-c2ccc(F)cc2)nn1CC(=O)N(C)CCN(C)C under?
middle range

Which bin should I file Cc1ccc(S(=O)(=O)NCCc2[nH]nc(-c3ccc(F)cc3)c2-c2ccncc2)cc1 under?
lower range

----------
# measured-target: MAPK14 (human)
# experiment-summary: Inhibition of MAPK14 Kinase Activity by PHAS-I Assay
# run-parameters: concentration not given here
Returns one of met or not met; met when inhibition is >= 70%.

{"compound": "CC(C)C(=O)NCCc1[nH]nc(-c2ccc(F)cc2)c1-c1ccncc1", "class": "met"}
{"compound": "COCCN(C)C(=O)Cn1nc(-c2ccc(F)cc2)c(-c2ccncc2)c1C", "class": "not met"}
{"compound": "CC(=O)NCCc1[nH]nc(-c2ccc(F)cc2)c1-c1ccncc1", "class": "met"}
{"compound": "Cc1c(-c2ccncc2)c(-c2ccc(F)cc2)nn1CC(=O)N1Cc2ccsc2CC1c1ccc(Cl)cc1 (centres undefined)", "class": "not met"}
{"compound": "Cc1c(-c2ccncc2)c(-c2ccc(F)cc2)nn1CC(=O)NCC(=O)OC(C)(C)C", "class": "not met"}

For this compound, is measured inhibition 70% or higher? CS(=O)(=O)NCCCc1[nH]nc(-c2ccc(F)cc2)c1-c1ccncc1
met

For this compound, is measured inhibition 70% or higher? CCCCC(C)NC(=O)Cn1nc(-c2ccc(F)cc2)c(-c2ccncc2)c1C (centres undefined)
met

For this compound, is measured inhibition 70% or higher? Cc1c(-c2ccncc2)c(-c2ccc(F)cc2)nn1CC(=O)Nc1ccc(CCC(=O)c2cccnc2)cc1
met

For this compound, is measured inhibition 70% or higher? CCNC(=O)NCCCc1[nH]nc(-c2ccc(F)cc2)c1-c1ccncc1
met

For this compound, is measured inhibition 70% or higher? Cc1c(-c2ccncc2)c(-c2ccc(F)cc2)nn1CC(=O)Nc1ccc(C(F)(F)F)cc1
met

For this compound, is measured inhibition 70% or higher? CCOC(=O)C[C@H](NC(=O)Cn1nc(-c2ccc(F)cc2)c(-c2ccncc2)c1C)C(=O)OCC
not met

----------
# measured-target: MAPK14 (human) (UniProt Q16539)
# Sequence (Q16539 whole entry, looked up): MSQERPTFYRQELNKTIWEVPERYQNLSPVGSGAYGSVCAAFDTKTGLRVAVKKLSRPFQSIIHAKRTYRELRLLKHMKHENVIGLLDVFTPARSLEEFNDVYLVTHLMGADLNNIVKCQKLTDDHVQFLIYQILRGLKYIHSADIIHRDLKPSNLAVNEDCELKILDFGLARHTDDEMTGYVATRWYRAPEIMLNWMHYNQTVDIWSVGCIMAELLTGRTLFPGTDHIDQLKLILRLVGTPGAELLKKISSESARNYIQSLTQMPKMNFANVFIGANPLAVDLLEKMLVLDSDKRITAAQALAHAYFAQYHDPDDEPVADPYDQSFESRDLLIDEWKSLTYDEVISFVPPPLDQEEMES
# experiment-summary: Inhibition of LPS Stimulated TNF Production by U937 Cells
# run-parameters: concentration not given here
Grouping key: inhibition. Bins: low bin = under 20%, mid bin = from 20% up to 50%, high bin = 50% and over

Solved cases (3 shown):
{"compound": "CCCOC(=O)N[C@@H](C)c1[nH]nc(-c2ccc(F)cc2)c1-c1ccncc1", "class": "high bin"}
{"compound": "O=S(=O)(NCCc1[nH]nc(-c2ccc(F)cc2)c1-c1ccncc1)c1ccccc1F", "class": "mid bin"}
{"compound": "O=C(NCc1[nH]nc(-c2ccc(F)cc2)c1-c1ccncc1)c1ccc(OC(F)(F)F)cc1", "class": "mid bin"}

Which bin should I file O=S(=O)(NCc1[nH]nc(-c2ccc(F)cc2)c1-c1ccncc1)c1ccc(C(F)(F)F)cc1 under?
high bin

Which bin should I file COCC(=O)NCCc1[nH]nc(-c2ccc(F)cc2)c1-c1ccncc1 under?
mid bin

Which bin should I file CCOC(=O)CCOC(=O)NCc1[nH]nc(-c2ccc(F)cc2)c1-c1ccncc1 under?
low bin

Which bin should I file C[C@H](NS(=O)(=O)c1c(Cl)cccc1Cl)c1[nH]nc(-c2ccc(F)cc2)c1-c1ccncc1 under?
high bin

----------
# measured-target: MAPK14 (human)
# experiment-summary: Inhibition of LPS Stimulated TNF Production by U937 Cells
# run-parameters: concentration not given here
measured-property: inhibition
Kindly write the number and append the unit.

{"molecular-string": "COc1cccc(CC(=O)N[C@@H](C)c2[nH]nc(-c3ccc(F)cc3)c2-c2ccncc2)c1", "inhibition": "14%"}

Form field - read-out: inhibition; system: MAPK14 (human); submitted item: Cc1c(Cl)cccc1S(=O)(=O)N[C@@H](C)c1[nH]nc(-c2ccc(F)cc2)c1-c1ccncc1
54%

Form field - read-out: inhibition; system: MAPK14 (human); submitted item: C[C@@H](NS(=O)(=O)c1ccc(-c2ccon2)s1)c1[nH]nc(-c2ccc(F)cc2)c1-c1ccncc1
95%

Form field - read-out: inhibition; system: MAPK14 (human); submitted item: C[C@H](NC(=O)c1ccc(Cl)cc1)c1[nH]nc(-c2ccc(F)cc2)c1-c1ccncc1
32%

Form field - read-out: inhibition; system: MAPK14 (human); submitted item: NC(=O)NCc1[nH]nc(-c2ccc(F)cc2)c1-c1ccncc1
50%

----------
# measured-target: MAPK14 (human)
# experiment-summary: Inhibition of MAPK14 Kinase Activity by PHAS-I Assay
# run-parameters: concentration not given here
measured-property: inhibition (%)
Please respond with the number in % and leave the unit unwritten.

{"molecule": "O=C(NCCc1[nH]nc(-c2ccc(F)cc2)c1-c1ccncc1)N1CCCC1", "inhibition / %": 76}

I am curious: what inhibition value has been reported for Cc1c(-c2ccncc2)c(-c2ccc(F)cc2)nn1CC(=O)Nc1cc([N+](=O)[O-])cc([N+](=O)[O-])c1 ?
90

I am curious: what inhibition value has been reported for Cc1c(-c2ccncc2)c(-c2ccc(F)cc2)nn1CC(=O)N1CCCCC1C[C@@H]1CCCN1C (stereo not given in full) ?
42

I am curious: what inhibition value has been reported for CCNC(=O)NCCc1[nH]nc(-c2ccc(F)cc2)c1-c1ccncc1 ?
67

I am curious: what inhibition value has been reported for O=C(NCCc1[nH]nc(-c2ccc(F)cc2)c1-c1ccncc1)Nc1cccc(F)c1 ?
72

I am curious: what inhibition value has been reported for Cc1c(-c2ccncc2)c(-c2ccc(F)cc2)nn1CC(=O)Nc1ccc(OCc2ccccc2)cc1 ?
82

I am curious: what inhibition value has been reported for CCOC(=O)NCCc1[nH]nc(-c2ccc(F)cc2)c1-c1ccncc1 ?
79

I am curious: what inhibition value has been reported for Cc1c(-c2ccncc2)c(-c2ccc(F)cc2)nn1CC(=O)NC1CC1 ?
75

I am curious: what inhibition value has been reported for O=C(NCCc1[nH]nc(-c2ccc(F)cc2)c1-c1ccncc1)C1CC1 ?
85

I am curious: what inhibition value has been reported for O=C(NCCCc1[nH]nc(-c2ccc(F)cc2)c1-c1ccncc1)N1CCCC1 ?
86

----------
pIC50 by entry:
# measured-target: MAPK14 (human)
# experiment-summary: Inhibition of MAPK14 Kinase Activity by EGFRP Assay
Bear in mind: pIC50 is minus log10 of a mol/L concentration; give just that figure.

{"molecular-string": "Cc1cccc(-c2c(-c3ccnc(C)c3)cnn2C)c1", "measured-property": "pIC50", "reading": 6.98}

I am curious: what pIC50 value has been reported for Cc1cc(-c2cn(C)nc2-c2cccc(Cl)c2)ccn1.Cc1cc(-c2cnn(C)c2-c2cccc(Cl)c2)ccn1 ?
7.36

I am curious: what pIC50 value has been reported for Cn1cc(-c2ccncc2)c(-c2cccc(Cl)c2)n1.Cn1ncc(-c2ccncc2)c1-c1cccc(Cl)c1 ?
6.99

----------
# measured-target: MAPK14 (human)
# experiment-summary: Inhibition of LPS Stimulated TNF Production by U937 Cells
log10 IC50 by entry:
Give log10 of IC50, with IC50 taken in µM.

As a guide, the following entries are already answered.
{"compound": "C[C@H](NS(C)(=O)=O)c1[nH]nc(-c2ccc(F)cc2)c1-c1ccncc1", "measured-target": "MAPK14 (human)", "reading": 0.23}
{"compound": "Fc1ccc(-c2[nH]nc(Nc3ccccc3)c2-c2ccncc2)cc1", "measured-target": "MAPK14 (human)", "reading": 0.04}

Continue with the compound presented below.
I am curious: what log10 IC50 value has been reported for C[C@@H](NS(=O)(=O)c1ccc(F)cc1)c1[nH]nc(-c2ccc(F)cc2)c1-c1ccncc1 ?
-0.05

----------
log10 IC50 by entry:
# measured-target: MAPK14 (human) (UniProt Q16539)
# experiment-summary: Inhibition of LPS Stimulated TNF Production by U937 Cells
Give log10 of IC50, with IC50 taken in µM.

As a guide, the following entries are already answered.
{"molecular-string": "CC(=O)NCc1[nH]nc(-c2ccc(F)cc2)c1-c1ccncc1", "reading": -0.72}
{"molecular-string": "CCOc1ccc(-c2[nH]nc(C)c2-c2ccncc2)cc1", "reading": 0.37}
{"molecular-string": "CC(C)C(=O)N[C@@H](C)c1[nH]nc(-c2ccc(F)cc2)c1-c1ccncc1", "reading": 0.00}

I am curious: what log10 IC50 value has been reported for CC(=O)OC(C)(C)C(=O)N[C@@H](C)c1[nH]nc(-c2ccc(F)cc2)c1-c1ccncc1 ?
-0.06

I am curious: what log10 IC50 value has been reported for Cc1cccc(C)c1NC(=O)NCc1[nH]nc(-c2ccc(F)cc2)c1-c1ccncc1 ?
0.37

I am curious: what log10 IC50 value has been reported for COC(=O)CCC(=O)NCc1[nH]nc(-c2ccc(F)cc2)c1-c1ccncc1 ?
1.00

I am curious: what log10 IC50 value has been reported for Fc1ccc(-c2n[nH]cc2-c2ccnc3ccccc23)cc1 ?
0.05

I am curious: what log10 IC50 value has been reported for O=C(NCc1[nH]nc(-c2ccc(F)cc2)c1-c1ccncc1)Nc1ccccc1F ?
0.31

I am curious: what log10 IC50 value has been reported for C#CCn1cc(-c2ccncc2)c(-c2ccc(F)cc2)n1 ?
-0.30

I am curious: what log10 IC50 value has been reported for Cc1[nH]nc(-c2ccc(F)cc2)c1-c1ccncc1 ?
-0.65

I am curious: what log10 IC50 value has been reported for CC(C)COC(=O)NCc1[nH]nc(-c2ccc(F)cc2)c1-c1ccncc1 ?
-0.14

I am curious: what log10 IC50 value has been reported for Cn1cc(-c2ccncc2)c(-c2ccc3c(c2)OCO3)n1 ?
-0.49

I am curious: what log10 IC50 value has been reported for Cc1cnccc1-c1c[nH]nc1-c1ccc(F)cc1 ?
0.08

I am curious: what log10 IC50 value has been reported for Cn1cc(-c2ccnc(F)c2)c(-c2ccc(F)c(F)c2)n1 ?
0.11
